Value source: ChEMBL document CHEMBL3400077

Molecular target: UniProtKB Q99685
Sequence (Q99685 whole entry): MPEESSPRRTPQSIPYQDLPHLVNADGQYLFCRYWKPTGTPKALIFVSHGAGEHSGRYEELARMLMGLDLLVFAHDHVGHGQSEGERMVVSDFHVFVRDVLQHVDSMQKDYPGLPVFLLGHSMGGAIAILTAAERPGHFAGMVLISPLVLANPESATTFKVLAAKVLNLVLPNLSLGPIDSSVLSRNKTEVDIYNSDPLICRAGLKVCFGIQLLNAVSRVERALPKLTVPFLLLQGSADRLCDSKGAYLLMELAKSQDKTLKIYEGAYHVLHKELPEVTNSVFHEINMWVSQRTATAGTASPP
Assay: Reversible inhibition of human recombinant MAGL using 2-arachidonoylglycerol substrate assessed as arachidonic acid after 60 mins by HPLC analysis
parameter.measured: IC50 (nM)

O=C(N1CCC(=C2c3ccc(Cl)cc3CCc3cccnc32)CC1)n1cncn1: 257

* * *

Target: UniProt:Q99685
Assay: Inhibition of human recombinant MAGL using 2-arachidonoylglycerol substrate assessed as arachidonic acid by HPLC analysis
pIC50: −log10 of the molar value.
Classification field: true = pIC50 at or over 7; false = pIC50 under 7.

O=C(N1CCC(C(c2ccc3c(c2)OCO3)c2ccc3c(c2)OCO3)CC1)n1cncn1: true
O=C(N1CCC(=C2c3ccc(Cl)cc3CCc3cccnc32)CC1)n1cncn1: true
O=C(ON1C(=O)CCC1=O)N1CCC(=C2c3ccc(Cl)cc3CCc3cccnc32)CC1: false
O=C(N1CCC(=C2c3ccccc3C=Cc3ccccc32)CC1)n1cncn1: true
O=C(N1CCC(=C2c3ccc(Cl)cc3CCc3cccnc32)CC1)n1nnc2ccccc21: false
O=C(OC(C(F)(F)F)C(F)(F)F)N1CCC(=C2c3ccc(Cl)cc3CCc3cccnc32)CC1: false
